B1: Storkhead-box protein 2, residues 64 to 141; numbered along this chain, Q9P2F5 (parent)
chain: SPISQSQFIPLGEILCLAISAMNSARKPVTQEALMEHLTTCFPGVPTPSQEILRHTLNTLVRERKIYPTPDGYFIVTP

Variants of: B1
experimentNotes: abundance fitness (aPCA) (normalised: wild type 0, dead -1); higher = more abundant; growth selection in yeast, the domain comes from the species named
conditionSummary: Homo sapiens
Grouping rule (abundance fitness): bottom bin: < -0.1; middle bin: ≥ -0.1 and < -0.04; top bin: ≥ -0.04

# variantId, categoryLabel
rows = [
    ("V61C", "top bin"),
    ("T30K", "middle bin"),
    ("T56E", "middle bin"),
    ("R62A", "top bin"),
    ("S24L", "middle bin"),
    ("L38I", "middle bin"),
    ("K27H", "bottom bin"),
    ("A21Y", "top bin"),
    ("I66A", "bottom bin"),
    ("T59L", "top bin"),
    ("P46C", "middle bin"),
    ("T56F", "top bin"),
    ("I14G", "middle bin"),
    ("I52W", "top bin"),
    ("V29D", "bottom bin"),
    ("S6M", "bottom bin"),
    ("E63M", "middle bin"),
    ("R26L", "middle bin"),
    ("S20L", "bottom bin"),
    ("V45F", "top bin"),
    ("I19Y", "bottom bin"),
    ("M22Q", "bottom bin"),
    ("G72H", "bottom bin"),
    ("R26Y", "bottom bin"),
    ("K65E", "bottom bin"),
    ("E36A", "middle bin"),
    ("L34F", "bottom bin"),
    ("P68D", "middle bin"),
    ("M35N", "bottom bin"),
    ("P68M", "top bin"),
    ("C41V", "middle bin"),
    ("P48H", "bottom bin"),
    ("V76K", "top bin"),
    ("M22A", "bottom bin"),
    ("M22Y", "bottom bin"),
    ("Q31Y", "middle bin"),
    ("H37L", "bottom bin"),
    ("L60G", "bottom bin"),
    ("E32Q", "top bin"),
    ("P46M", "bottom bin"),
    ("D71A", "top bin"),
    ("Q5D", "top bin"),
    ("I9W", "top bin"),
    ("E13G", "top bin"),
]
